Test system: SNB-19 CNS
protocol notes: NCI tumour cell line growth inhibition, 48 h
Overview of reported log10(TGI) across a group of compounds:
Each number you see is log10 of TGI, and the unit inside the log is µM.

* COc1ccc(N2C(N)=C(C#N)C(C#N)(C#N)C2c2cccc([N+](=O)[O-])c2)cc1 (stereo not drawn) | 1.51
* N#Cc1ccc(C2C3=C(CCCC3=O)OC3=C2C(=O)c2ccccc2C3=O)cc1 (stereo not drawn) | 1.20
* Cn1cc(-c2nc(-c3c[nH]c4ccncc34)cs2)c2cc(F)ccc21 | 0.53
* CC1(C)CCC[C@]2(C)c3cc(O)ccc3CC[C@@H]12 | 1.53
* Clc1ccc(C(c2ccc(Cl)cc2)N2CCNCC2)cc1 | 1.33

# context switch: different compound, same log10(TGI)
Q: log10(TGI) for COc1cc2c(cc1OC)-c1ccc3cc4c(cc3c1N(CCN(C)C)C2)OCO4 ?
A: 1.08

----------
Listed here: items and their measured TGI.
Tested on: IGROV1 ovarian
protocol notes: NCI tumour cell line growth inhibition, 48 h

Example entries and their recorded answers appear below.
* CN1CCC(C(=O)Nc2n[nH]c3nc(-c4ccc(O)cc4)c(Br)cc23)CC1 | > 25 µM
* O=CC(Br)C(Br)c1ccccc1 (stereo not drawn) | 26 µM
* Cc1nc2c(Cl)cc(Cl)cc2c(Cl)c1CCCl | > 100 µM
* CCCCCC(O)(CCCCC)CCCCCCCCC1=C(O)c2ccccc2C(=O)C1=O | 26.4 µM
* COC(=O)[C@@]12OC[C@]34C([C@@H](O)C1O)[C@@]1(C)CC(=O)C(O)=C(C)C1C[C@H]3OC(=O)[C@H](OC(=O)/C=C(/c1ccccc1)C(F)(F)F)[C@H]42 (stereo partly drawn) | 11.5 µM

Q: Data request, read-out TGI, for Cn1c(/C=C(\C#N)c2cccc(C(F)(F)F)c2)nc2c(N3CCOCC3)nc(Cl)nc21
A: 1.89 µM

Q: Which TGI value is on record for CN(C)CCNC(=O)c1cccc2[nH]c(-c3ccncc3)nc12 ?
A: > 56.4 µM

----------
Reported TGI values follow for various molecules
Test system: MDA-MB-435
protocol notes: NCI tumour cell line growth inhibition, 48 h
Where a SMILES comes first, the peptide text is derived from it. [ ]: non-standard residue; d: D form. pGlu = O=C1CC[CH](C(=O)O)N1

Consider the reported TGI for these molecules:
* Clc1ccc2nc(CC3CCCC3)[nH]c2c1 | 25.9 µM
* CC1(C)N=C(N)N=C(N)N1c1ccc(CCc2ccc(Cl)cc2S(=O)(=O)F)c(Cl)c1 | 25.4 µM
* CCN(CC)CCCC(C)Nc1c2ccc(Cl)cc2nc2cc(OC)c(OC)cc12 (stereo not drawn) | 3.08 µM
* CC(O)c1cc2c(s1)C(=O)c1scc(C(C)O)c1C2=O (stereo not drawn) | 0.455 µM
* O=C(NCCN1CCC(O)CC1)c1cc2c(o1)C(=O)c1ccccc1C2=O | 0.324 µM

Q: Fill blank: measured TGI of the molecule COc1ccc(-c2nnc(CCCCCCCCc3nnc(-c4ccc(OC)cc4)n3N)n2N)cc1 is ____.
A: > 100 µM

Q: Fill blank: measured TGI of the molecule CSc1n(Cc2ccc3ccccc3c2)c(C)c[n+]1Cc1ccc2ccccc2c1 is ____.
A: 1.57 µM

Q: Which TGI value is on record for COc1ccc(N=N/C(=N/NC(=O)c2cc(Cl)ccc2C(=O)c2ccccc2)c2ccc(N(CCC#N)CCC#N)cc2C)cc1 ?
A: > 100 µM

Q: Give its TGI value. Item: Clc1cc(OCC23CC4CC(CC(C4)C2)C3)nc(OCC23CC4CC(CC(C4)C2)C3)n1
A: > 100 µM

Q: Entry under review: CC(NC(=O)C(Cc1cnc[nH]1)NC(=O)C1CCC(=O)N1)C(N)=O (stereo not drawn) ([pGlu]-His-Ala-NH2; configuration not given here) . Reported TGI?
A: > 100 µM

----------
System: MOLT-4 leukemia
protocol notes: NCI tumour cell line growth inhibition, 48 h
readout: TGI

// worked examples, TGI included
* O=c1oc(-c2ccccc2)cc2cccc(O)c12 | > 100 µM
* Cc1ccc(S(=O)(=O)C2c3nc4ccccc4cc3-c3nc4ccccc4nc32)cc1 (stereo not drawn) | > 100 µM

Okay, now this molecule:
Q: Reported TGI, molecule COc1ccc(-c2cn(-c3cccc(C(=O)/C=C/c4ccc(O)c(OC)c4)c3)c(=O)[nH]2)cc1 : ____
A: > 23.8 µM

----------
Test system: HCT-15 colon
protocol notes: NCI tumour cell line growth inhibition, 48 h
readout: TGI (µM)
Numeric answer only, unit µM assumed.

• CC(=O)Nc1ccc(-c2nnc(SCC(=O)Nc3cccc([N+](=O)[O-])c3)o2)cc1 = 46.2

Now consider the entry below.
Q: So what's the measured TGI for this one? CC(O)c1cc2c(s1)C(=O)c1scc(C(C)O)c1C2=O (stereo not drawn)
A: 1.13

----------
Test system: RXF 393 renal
protocol notes: NCI tumour cell line growth inhibition, 48 h; in the data active = GI50 below about 0.43 µM; inactive = the rest
Answer with one of the outcomes t = active, f = inactive

- OC(C1CO1)C(O)C1CO1 (configuration not stated): f
- Cc1cc([N+](=O)[O-])ccc1NS(=O)(=O)c1cc(Cl)ccc1Cl: f

Q: Test call, this compound: Nc1nc2ccc3[nH]ncc3c2c2c1CCCC2
A: t

Q: Hi, sorry to bother you, what did the test record for C[C@@H](NC(=O)[C@@H](CC(=O)N1CCC(N2CCCCC2)CC1)N1C(=O)[C@@H](N2C(=O)OC[C@@H]2c2ccccc2)[C@H]1/C=C/c1cccc(Cl)c1)c1ccccc1 ?
A: f

Q: Assay result, entry O=C(NCCN1CCC(O)CC1)c1cc2c(o1)C(=O)c1ccccc1C2=O — outcome?
A: f

Q: GET /call?item= CC1(C)CCC[C@]2(C)c3cc(O)ccc3CC[C@@H]12 returns the recorded outcome of this test.
A: f

Q: I would be grateful if you could indicate the recorded call for COc1ccc([I+]c2ccccc2)cc1 .
A: f

----------
System: SK-MEL-28 melanoma
protocol notes: NCI tumour cell line growth inhibition, 48 h
In this section we review reported TGI values for a set of compounds.

• Cc1nc2c(Cl)cc(Cl)cc2c(Cl)c1CCCl = > 100 µM

Q: What value of measured TGI is listed for O=C1c2ccccc2-c2nnc(-c3ccc(Cl)cc3)cc21 ?
A: > 10 µM

Q: TGI lookup needed for CCCCCCCC(=O)OCC1OC(n2cc(F)c(=O)[nH]c2=O)C(NC(=O)OCc2ccccc2)C(O)C1O (stereo not drawn) , thanks.
A: > 100 µM

----------
System: RXF 393 renal
protocol notes: NCI tumour cell line growth inhibition, 48 h
readout: TGI

Examples with their reported TGI follow.
- COc1ccc(-c2nnc(-c3ccncc3)o2)cc1: > 100 µM
- CCCCCCCC(=O)OCC1OC(n2cc(F)c(=O)[nH]c2=O)C(NC(=O)OCc2ccccc2)C(O)C1O (stereo not given): > 100 µM
- N/C(=N\N=C\c1cc2c(cc1Cl)OCO2)NO: > 100 µM
- c1cncc(-c2nc3ccccc3s2)c1: > 100 µM
- COc1cc([C@H]2c3cc4c(cc3[C@H](NCc3ccc([N+](=O)[O-])cc3)C3COC(=O)[C@H]32)OCO4)cc(OC)c1O (stereo not given in full): > 64.6 µM
- COc1c(-c2cccs2)oc2c(CC(=O)O)cccc2c1=O: > 100 µM
- O=C1c2ccccc2-c2nnc(-c3ccc(Cl)cc3)cc21: > 10 µM
- Clc1cccc(N2CCN(CCN3CCc4c([nH]c5ccccc45)C3c3cccnc3)CC2)c1 (stereo not given): > 100 µM

Q: Quick one: TGI for COc1ccc(CCNC(=O)CCCCCO)cc1OC ?
A: > 100 µM

Q: Which TGI value is on record for Nc1nc(NC2C=C(CO)C(O)C2O)c([N+](=O)[O-])c(=O)[nH]1 (stereo not given) ?
A: > 100 µM

Q: Field request: TGI | item: COc1cc([C@@H]2c3cc4c(cc3[C@@H](N=Cc3ccc(C(=O)O[C@@H](C(=O)O[C@H]5C[C@@]6(O)[C@@H](OC(=O)c7ccccc7)[C@@H]7[C@]8(OC(C)=O)CO[C@@H]8C[C@H](O)[C@@]7(C)C(=O)[C@H](OC(C)=O)C(=C5C)C6(C)C)[C@@H](NC(=O)c5ccccc5)c5ccccc5)cc3)[C@H]3COC(=O)[C@H]23)OCO4)cc(OC)c1O
A: > 31.1 µM

Q: Need TGI of Cc1cc2c(cc1-c1cc3c(cc1C)C(C(C)C)=C(O)C(=O)/C3=C\Nc1c(C)n(C)n(-c3ccccc3)c1=O)/C(=C/Nc1c(C)n(C)n(-c3ccccc3)c1=O)C(=O)C(O)=C2C(C)C , thanks.
A: > 100 µM

Q: Value lookup for TGI; key = COc1ccc(OC)c(NCC#N)c1
A: > 100 µM

Q: So what does the record say about TGI for Clc1cc(OCC23CC4CC(CC(C4)C2)C3)nc(OCC23CC4CC(CC(C4)C2)C3)n1 ?
A: > 100 µM

Q: State the recorded TGI for this entry: CCOC(=O)C1C[C@H]2CO[C@H](c3ccccc3)N2C1=O (stereo not given in full)
A: > 100 µM
